Would you kindly list IC50 for each of these compounds?
# Measurement Target: Human full-length SHP2 recombinant protein (Homo sapiens (Human), UniProt Q06124)
# Sequence (Q06124 whole entry): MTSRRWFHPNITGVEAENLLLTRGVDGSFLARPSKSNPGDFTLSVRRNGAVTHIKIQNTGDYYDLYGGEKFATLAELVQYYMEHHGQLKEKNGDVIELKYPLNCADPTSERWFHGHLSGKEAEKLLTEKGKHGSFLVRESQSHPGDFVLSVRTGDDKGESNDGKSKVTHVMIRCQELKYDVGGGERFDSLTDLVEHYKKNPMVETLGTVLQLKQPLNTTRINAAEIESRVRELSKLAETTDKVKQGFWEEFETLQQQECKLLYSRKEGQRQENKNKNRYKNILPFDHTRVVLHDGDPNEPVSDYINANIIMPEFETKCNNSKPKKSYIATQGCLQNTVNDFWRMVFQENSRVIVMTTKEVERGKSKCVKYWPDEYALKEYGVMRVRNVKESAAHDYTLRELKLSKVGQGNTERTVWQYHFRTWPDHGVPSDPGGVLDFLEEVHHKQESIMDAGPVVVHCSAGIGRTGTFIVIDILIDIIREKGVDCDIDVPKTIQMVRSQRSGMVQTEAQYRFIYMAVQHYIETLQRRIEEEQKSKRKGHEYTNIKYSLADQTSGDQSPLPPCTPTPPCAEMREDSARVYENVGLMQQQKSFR
# Assay Text: Assay of full-length SHP2 phosphatase activity
# Assay type: biochemical
# Experimental Parameters: DiFMUP substrate, with activating peptide
Only the number, expressed in nM, is required.

Q: Human full-length SHP2 recombinant protein (Homo sapiens (Human), UniProt Q06124) / IC50 / `CC#Cc1ccc2c(c1)[C@@H](N)C1(CCN(c3nc(N)c(-c4cn(C)c5ncccc45)c(=O)n3C)CC1)C2` : value?
Result: 2

Q: Proceed to `C#Cc1cc(F)c2c(c1)[C@@H](N)C1(CCN(c3cc(=O)n(-c4cccc(Cl)c4Cl)c(C)n3)CC1)C2`
Result: 5

Q: Proceed to `CCNC(=O)C#Cc1ccc2c(c1)[C@@H](N)C1(CCN(c3cnc(Sc4cc(N)nc(Cl)c4Cl)cn3)CC1)C2`
Result: 4

Q: Proceed to `COCC#Cc1ccc2c(c1)[C@@H](N)C1(CCN(c3ncc(Sc4ccnc(N)c4Cl)c4nccn34)CC1)C2`
Result: 2

Q: Proceed to `Cc1nc(N2CCC3(CC2)Cc2ccc(C#CCO)cc2[C@H]3N)cc(=O)n1-c1cc(Cl)ccc1Cl`
Result: 50

Q: Proceed to C#Cc1ccc2c(c1)[C@@H](N)C1(CCN(c3cc(=O)n(-c4ccc(C#N)c(Cl)c4Cl)c(C)n3)CC1)C2 [Compound 184]
Result: 3

Q: Proceed to `C#Cc1ccc2c(c1)CC1(CCN(c3ncc(Sc4ccnc(NC5CCC5)c4Cl)c4nccn34)CC1)[C@@H]2N`
Result: 35

====

# Measurement Target: Human full-length SHP2 recombinant protein (Homo sapiens (Human))
# Assay Text: Assay of full-length SHP2 phosphatase activity
# Experimental Parameters: DiFMUP substrate, with activating peptide
pIC50: −log10 of the molar value.
// label = y if pIC50 is not less than 9, otherwise n

Q: Assess whether reported pIC50 for `CCOCC#Cc1ccc2c(c1)[C@@H](N)C1(CCN(c3cc(=O)n(-c4cccc(Cl)c4Cl)c(C)n3)CC1)C2` sits at 9 or higher.
Result: n

Q: Proceed to `Cc1nc(N2CCC3(CC2)Cc2ccc(C#CC(N)=O)cc2[C@H]3N)cnc1Sc1ccnc(N)n1`
Result: n

Q: Proceed to C#Cc1ccc2c(c1)[C@@H](N)C1(CCN(c3cc(=O)n(-c4cccc(Cl)c4Cl)c(C)n3)CC1)C2 [Compound 64]
Result: n

Q: Proceed to `Nc1nccc(Sc2cnc(N3CCC4(CC3)Cc3ccc(C#CC(=O)NC5CC5)cc3[C@H]4N)cn2)c1Cl`
Result: y

Q: Proceed to `CNC(=O)C#Cc1ccc2c(c1)[C@@H](N)C1(CCN(c3nc(N)c(Sc4ccnc(N)c4Cl)nc3Cl)CC1)C2`
Result: n

Q: Proceed to `COCCNC(=O)C#Cc1ccc2c(c1)[C@@H](N)C1(CCN(c3cnc(Sc4ccnc(N)c4Cl)cn3)CC1)C2`
Result: y

Q: Proceed to `CNC(=O)C#Cc1ccc2c(c1)[C@@H](N)C1(CCN(c3ncc(Sc4ccnc(N)c4Cl)n4nccc34)CC1)C2`
Result: n

Q: Proceed to CNC(=O)C#Cc1ccc2c(c1)[C@@H](N)C1(CCN(c3cc(=O)n(-c4ccc(F)c(OC)c4Cl)c(C)n3)CC1)C2 (atropisomer, axis not shown) [Compound 200]
Result: n

Q: Proceed to `COCC#Cc1cccc2c1CC1(CCN(c3ncc(Sc4ccnc(N)c4Cl)c4nccn34)CC1)[C@@H]2N`
Result: n

Q: Proceed to `CNC(=O)C#Cc1ccc2c(c1)[C@@H](N)C1(CCN(c3ncc(N4CCCc5ncccc54)nc3C)CC1)C2`
Result: n

Q: Proceed to `C#Cc1ccc2c(c1)[C@@H](N)C1(CCN(c3cc(=O)n(-c4ccc(OCC)c(Cl)c4)c(C)n3)CC1)C2`
Result: n

Q: Proceed to `COCC#Cc1ccc2c(c1)[C@@H](N)C1(CCN(c3nc(C)n(-c4cccc(Cl)c4Cl)c(=O)c3C)CC1)C2`
Result: n

Q: Proceed to `COCC#Cc1ccc2c(c1)[C@@H](N)C1(CCN(c3ncc(Sc4ccnc(N)n4)c4nccn34)CC1)C2`
Result: n

Q: Proceed to `C#Cc1ccc2c(c1)[C@@H](N)C1(CCN(c3cc(=O)n(-c4cccc(C#N)c4Cl)c(C)n3)CC1)C2`
Result: n

Q: Proceed to `C#Cc1ccc2c(c1)OC1(CCN(c3nc(C)n(-c4ccc(F)c(F)c4)c(=O)c3C)CC1)[C@@H]2N`
Result: n

Q: Proceed to `Cc1nc(N2CCC3(CC2)Cc2ccc(C#CCN(C)C)cc2[C@H]3N)n2ccnc2c1Sc1ccnc(N)c1Cl`
Result: n

Q: Proceed to `NC(=O)C#Cc1ccc2c(c1)[C@@H](N)C1(CCN(c3cnc(Sc4ccnc(N)c4Cl)cn3)CC1)C2`
Result: y
